- Tested on: NCI-H292
- experiment-summary: In vitro proliferation (MTT) assay in presence and absence of NE, NCI-H292
- Type: cell-based
- protocol-conditions: Homo sapiens, presence of 20 nM hNE, 72 h, read-out: NCI H292 + hNE IC50
- Description: The in vitro cytotoxicity was evaluated in cancer cell lines NCI-H292 and LoVo after a 72-h continuous exposure to the presence or absence of 20 nM NE using MTT assays (ATCC, Manassas, VA, USA). IC50 values were determined as the concentration of compound required for 50% inhibition of cell viability.
measurement-type: IC50 (nM)
Response body: numeric value in nM, unit text excluded.

Name the value of IC50 reported for "CCc1c2c(nc3ccccc13)-c1cc3c(c(=O)n1C2)COC(=O)[C@]3(O)CC" when tested on NCI-H292.
1.35
